Assay Name: Cmax in BALB/C mouse plasma at 2 mg/kg, po administered as single dose by LC-MS/MS analysis
Assay type: ADME, organism-based
Set-up: dose 2 mg/kg, route oral
Measured Quantity: Cmax

INSERT INTO measurements (chemical_smiles, test_value) VALUES
  ('COCCCOc1cc2c(cc1OC)-c1cc(=O)c(C(=O)O)cn1[C@H](C(C)C)C2', '322 ng/mL');

* * *

Assay Name: Lipophilicity, log D of the compound
Format: physicochemical
Particulars: octanol/water
Measured Quantity: logD

INSERT INTO results (chemical_smiles, measured_quantity, test_value) VALUES
  ('COCCCOc1cc2c(cc1OC)-c1cc(=O)c(C(=O)O)cn1[C@H](C(C)C)C2', 'logD', 1.28);

Where do these numbers come from? They come from ChEMBL document CHEMBL4265974.
